# STUDY_SYSTEM: α2-GABAA receptor (Rattus norvegicus, UniProt P18508+P23576)
# TEST_PROTOCOL: Ligand-binding assay, radiolabeled flumazenil competition, rat spinal cord membranes
# CONDITION_DESCRIPTION: read-out: % Inhibition (10^−5 M), affinity for α2-GABAA receptor
MEASURE: inhibition at 10 µM (%)

>>> readout_number("C=CS(=O)(=O)N(C)c1cccc(-c2ccnc3c(C(=O)c4cccs4)cnn23)c1")
99.5
>>> readout_number("CCN(c1cccc(-c2ccnc3c(C#N)cnn23)c1)S(=O)(=O)C(C)C")
86.5
>>> readout_number("N#Cc1cnn2c(-c3cccc(N4CCCS4(=O)=O)c3)ccnc12")
45.2
>>> readout_number("C#CCN(c1cccc(-c2ccnc3c(C#N)cnn23)c1)S(C)(=O)=O")
85.2
>>> readout_number("CN(c1cccc(-c2ccnc3c(C(=O)c4ccccn4)cnn23)c1)S(C)(=O)=O")
96.6
>>> readout_number("CCS(=O)(=O)N(C)c1cccc(-c2ccnc3c(C(=O)c4ccc(F)cc4)cnn23)c1")
89.8
>>> readout_number("CCCN(c1cccc(-c2ccnc3c(C#N)cnn23)c1)S(=O)(=O)C(C)C")
40.2
>>> readout_number("CN(c1cccc(-c2ccnc3c(C(=O)c4cccs4)cnn23)c1)S(=O)(=O)c1ccc(C#N)cc1")
89.5

The reported measurements were obtained from patent US7947688B2.
